Molecular target: double-labeled CYP3A4 (C64/C468)-ER/DY (Homo sapiens, UniProt P08684, S18F, form not given)
Experiment: Time-resolved LRET (phosphorescence lifetime measurements)
Details: Table S1; (C64/C468)-ER/DY; same ligand concentrations
Structures can show the parent of a compound that is named as a salt.
Threshold 200 µs: τ2 (phosphorescence decay time with ligand) strictly smaller gives Yes, otherwise No.

Sample answers from the record:
C[C@]12CC[C@H]3[C@@H](CCC4=CC(=O)CC[C@@]43C)[C@@H]1CC[C@@H]2O : No
OCCCCc1ccc2ccc3cccc4ccc1c2c34 : No
CC(C)C[C@H]1C(=O)N2CCC[C@H]2[C@]2(O)O[C@](NC(=O)[C@@H]3C=C4c5cccc6[nH]c(Br)c(c56)C[C@H]4N(C)C3)(C(C)C)C(=O)N12 [Bromocriptine, Bromocriptine mesylate] : Yes
CC(C)CCC[C@@H](C)[C@H]1CC[C@H]2[C@@H]3CC=C4C[C@@H](O)CC[C@]4(C)[C@H]3CC[C@]12C : No

Could you please tell me whether τ2 (phosphorescence decay time with ligand) recorded for O=c1cc(-c2ccccc2)oc2c1ccc1ccccc12 is less than 200 µs? No

====

Kindly supply the reported τ1 (phosphorescence decay time with ligand) values for the records listed here.
Molecular target: double-labeled CYP3A4 (C64/C468)-ER/DY (Homo sapiens, UniProt P08684, S18F, form not given)
Experiment: Time-resolved LRET (phosphorescence lifetime measurements)
Conditions: Table S1; (C64/C468)-ER/DY; 1-PB 40 µM, ANF 100 µM, BCT 2.5 µM, cholesterol 100 µM, testosterone 100 µM; bi-exponential fit
Description: The excitation wavelength was set to 540 nm.
Counter-ions that a name gives are not always drawn.
Answers are plain numbers, in µs.

C[C@]12CC[C@H]3[C@@H](CCC4=CC(=O)CC[C@@]43C)[C@@H]1CC[C@@H]2O [Testosterone, testosterone] : 67
OCCCCc1ccc2ccc3cccc4ccc1c2c34 [1-PB, 1-pyrenebutanol] : 63
O=c1cc(-c2ccccc2)oc2c1ccc1ccccc12 [ANF, α-naphthoflavone] : 53
CC(C)CCC[C@@H](C)[C@H]1CC[C@H]2[C@@H]3CC=C4C[C@@H](O)CC[C@]4(C)[C@H]3CC[C@]12C [Cholesterol, cholesterol] : 79

Please examine the following record next.
τ1 (phosphorescence decay time with ligand) in this record for CC(C)C[C@H]1C(=O)N2CCC[C@H]2[C@]2(O)O[C@](NC(=O)[C@@H]3C=C4c5cccc6[nH]c(Br)c(c56)C[C@H]4N(C)C3)(C(C)C)C(=O)N12 [Bromocriptine, Bromocriptine mesylate] : 39

====

Molecular target: double-labeled CYP3A4 C377/C468-DY/ER (Homo sapiens, UniProt P08684, S18F, form not given)
Sequence (P08684 13-503 S18F, form open): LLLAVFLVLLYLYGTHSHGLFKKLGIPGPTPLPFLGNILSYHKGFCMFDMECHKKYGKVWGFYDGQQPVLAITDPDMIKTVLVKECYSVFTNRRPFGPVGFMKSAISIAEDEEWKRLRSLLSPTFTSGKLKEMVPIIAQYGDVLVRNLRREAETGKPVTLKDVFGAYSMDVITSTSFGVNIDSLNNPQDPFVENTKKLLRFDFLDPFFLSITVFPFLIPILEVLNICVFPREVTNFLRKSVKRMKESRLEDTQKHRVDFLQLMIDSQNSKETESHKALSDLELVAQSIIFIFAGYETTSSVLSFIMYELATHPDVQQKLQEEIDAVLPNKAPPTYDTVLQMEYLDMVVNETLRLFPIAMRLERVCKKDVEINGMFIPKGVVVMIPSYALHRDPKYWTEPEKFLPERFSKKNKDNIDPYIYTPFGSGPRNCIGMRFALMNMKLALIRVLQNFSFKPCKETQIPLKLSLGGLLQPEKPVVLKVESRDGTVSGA
Test: Time-resolved LRET (phosphorescence lifetime measurements)
Settings: Table S2; protein C377/C468-ER/DY; same ligand concentrations
Structures can show the parent of a compound that is named as a salt.
readout.label: R (interprobe distance with ligand), lifetime measurements (Å)
One number for each entry, in Å.

Reference set, count: 4
CC(C)C[C@H]1C(=O)N2CCC[C@H]2[C@]2(O)O[C@](NC(=O)[C@@H]3C=C4c5cccc6[nH]c(Br)c(c56)C[C@H]4N(C)C3)(C(C)C)C(=O)N12 [Bromocriptine, Bromocriptine mesylate] : 36.8
O=c1cc(-c2ccccc2)oc2c1ccc1ccccc12 [ANF, α-naphthoflavone] : 43.9
OCCCCc1ccc2ccc3cccc4ccc1c2c34 [1-PB, 1-pyrenebutanol] : 38.3
CC(C)CCC[C@@H](C)[C@H]1CC[C@H]2[C@@H]3CC=C4C[C@@H](O)CC[C@]4(C)[C@H]3CC[C@]12C [Cholesterol, cholesterol] : 41.0

Please examine the following record next.
R (interprobe distance with ligand), lifetime measurements in this record for C[C@]12CC[C@H]3[C@@H](CCC4=CC(=O)CC[C@@]43C)[C@@H]1CC[C@@H]2O [Testosterone, testosterone] : 45.3
